pIC50: −log10 of the molar value.
This section presents pIC50 values reported for Serine/threonine-protein kinase Chk1 (Homo sapiens) in the literature.

Item: O=C(Nc1c[nH]c(=O)c(-c2cc3cc(CN4CCCC(F)C4)ccc3[nH]2)c1)c1cnn(Cc2ccc(Cl)cc2)c1 (stereo not shown) | System: Serine/threonine-protein kinase Chk1 (Homo sapiens) | pIC50: > 7.00

Item: `CN1CCN(Cc2ccc3[nH]c(-c4cc(NC(=O)c5cnn(Cc6ccccc6)c5)c[nH]c4=O)cc3c2)CC1` | System: Serine/threonine-protein kinase Chk1 (Homo sapiens) | pIC50: > 7.00

Item: `COc1cc(Cl)cc(OCCCN)c1-c1cc(Nc2cnc(C#N)cn2)n[nH]1` | System: Serine/threonine-protein kinase Chk1 (Homo sapiens) | pIC50: ≥ 9.00

Item: `CCN(CC)CCn1cnc2cc(Nc3c(N[C@H](C)c4cccc(OC)c4)c(=O)c3=O)ccc21` | System: Serine/threonine-protein kinase Chk1 (Homo sapiens) | pIC50: < 6.00

Item: `CN(C)Cc1c[nH]c2cc(CNc3c(Nc4ccc5[nH]cnc5c4)c(=O)c3=O)ccc12` | System: Serine/threonine-protein kinase Chk1 (Homo sapiens) | pIC50: < 6.00

Item: `C#CCOc1nc(Nc2cc(NC(=O)[C@H](N)Cc3ccccc3)cc(NC(=O)N3CCCC3)c2)ncc1Br` | System: Serine/threonine-protein kinase Chk1 (Homo sapiens) | pIC50: 6.52

Item: `CC1CCN(Cc2ccc3[nH]c(-c4cc(NC(=O)c5cnn(Cc6ccccc6)c5)c[nH]c4=O)cc3c2)CC1` | System: Serine/threonine-protein kinase Chk1 (Homo sapiens) | pIC50: > 7.00

Item: `CC(C)(COc1ccc2[nH]c(-c3cc(NC(=O)c4cnn(Cc5ccccc5)c4)c[nH]c3=O)cc2c1)CN1CCCCC1` | System: Serine/threonine-protein kinase Chk1 (Homo sapiens) | pIC50: > 7.00

Item: CC(c1ccccc1)n1cc(C(=O)Nc2c[nH]c(=O)c(-c3cc4cc(CN5CCOCC5)ccc4[nH]3)c2)cn1 (stereo not shown) | System: Serine/threonine-protein kinase Chk1 (Homo sapiens) | pIC50: > 7.00

Item: `CN(C)CCCOc1ccc(Cl)cc1NC(=O)Nc1cnccn1` | System: Serine/threonine-protein kinase Chk1 (Homo sapiens) | pIC50: 8.46

Item: `CNCC1(COc2ccc(F)c(OC)c2-c2cc(Nc3cnc(C#N)cn3)n[nH]2)CC1` | System: Serine/threonine-protein kinase Chk1 (Homo sapiens) | pIC50: 8.00 to 9.00

Item: `O=C(Nc1cnn(Cc2cc(F)cc(F)c2)c1)c1c[nH]c(=O)c(-c2cc3ccccc3[nH]2)c1` | System: Serine/threonine-protein kinase Chk1 (Homo sapiens) | pIC50: > 7.00

Item: `C[C@@H]1CCC[C@H](C)N1Cc1ccc2[nH]c(-c3cc(NC(=O)c4cnn(Cc5ccccc5)c4)c[nH]c3=O)cc2c1` | System: Serine/threonine-protein kinase Chk1 (Homo sapiens) | pIC50: > 7.00

Item: `O=c1c(NCc2cc(O)ccc2F)c(Nc2ccc3[nH]cnc3c2)c1=O` | System: Serine/threonine-protein kinase Chk1 (Homo sapiens) | pIC50: < 6.00

Item: `O=C(Nc1c[nH]c(=O)c(-c2cc3cc(CN4CCOCC4)ccc3[nH]2)c1)c1cnn(Cc2ccc(Cl)cc2)c1` | System: Serine/threonine-protein kinase Chk1 (Homo sapiens) | pIC50: > 7.00

Item: `Cc1cnc(NC(=O)Nc2cc(Cl)ccc2OCCCN(C)C)cn1` | System: Serine/threonine-protein kinase Chk1 (Homo sapiens) | pIC50: 8.35
